The reported measurements were obtained from patent US20090203709A1.

Experiment: Study M04-710 pharmacokinetics, multiple-dose escalation, non-hematologic malignancies
Type: in vivo, human
Measurement context: human, plasma, oral, 0.25 mg/kg, Study Day 1; 0.25 mg/kg; mean ± SD
Test readout: Tmax
Express your answer as a number followed by its unit.

For the compound Cc1ccc(F)c(NC(=O)Nc2ccc(-c3cccc4[nH]nc(N)c34)cc2)c1 , report Tmax.
2.7 h

====

Experiment: Study M04-710 pharmacokinetics, multiple-dose escalation, non-hematologic malignancies
Type: in vivo, human
Measurement context: human, plasma, oral, 0.3 mg/kg, Study Day 15; 0.30 mg/kg; mean ± SD
Test readout: Tmax (h)
Give just the number in h; leave the unit off.

Find the measured Tmax of Cc1ccc(F)c(NC(=O)Nc2ccc(-c3cccc4[nH]nc(N)c34)cc2)c1 and report it.
3.3
